Biological target: UGT2B7 (Homo sapiens, UniProt P16662)
Sequence (P16662 24-529): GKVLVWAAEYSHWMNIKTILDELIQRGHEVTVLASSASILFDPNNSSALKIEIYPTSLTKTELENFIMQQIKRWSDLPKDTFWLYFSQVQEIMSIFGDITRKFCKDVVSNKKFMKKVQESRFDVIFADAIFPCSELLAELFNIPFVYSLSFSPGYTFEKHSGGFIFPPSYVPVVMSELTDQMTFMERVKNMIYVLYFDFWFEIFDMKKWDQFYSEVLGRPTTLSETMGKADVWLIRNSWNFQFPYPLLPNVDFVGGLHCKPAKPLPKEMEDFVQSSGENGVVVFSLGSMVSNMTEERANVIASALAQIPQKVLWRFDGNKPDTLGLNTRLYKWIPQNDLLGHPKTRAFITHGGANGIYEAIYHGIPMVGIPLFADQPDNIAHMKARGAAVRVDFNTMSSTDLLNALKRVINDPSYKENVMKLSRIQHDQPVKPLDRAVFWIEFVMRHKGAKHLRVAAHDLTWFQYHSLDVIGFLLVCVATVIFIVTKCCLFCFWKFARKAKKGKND
Assay: UGT inhibition in suspension human hepatocytes
Format: cell-based
Details: read-out: Ki,u HHEPs; UGT2B7, Zidovudine 100 μM, unbound
recordedMetric: pKi
The value called pKi is obtained by taking minus log10 of the concentration in mol/L.

[in] Kindly indicate its recorded pKi. Item: "Nn1nnc2ccccc21"
[out] 2.26

---

Biological target: UGT1A9 (Homo sapiens, UniProt O60656)
Sequence (O60656 26-530): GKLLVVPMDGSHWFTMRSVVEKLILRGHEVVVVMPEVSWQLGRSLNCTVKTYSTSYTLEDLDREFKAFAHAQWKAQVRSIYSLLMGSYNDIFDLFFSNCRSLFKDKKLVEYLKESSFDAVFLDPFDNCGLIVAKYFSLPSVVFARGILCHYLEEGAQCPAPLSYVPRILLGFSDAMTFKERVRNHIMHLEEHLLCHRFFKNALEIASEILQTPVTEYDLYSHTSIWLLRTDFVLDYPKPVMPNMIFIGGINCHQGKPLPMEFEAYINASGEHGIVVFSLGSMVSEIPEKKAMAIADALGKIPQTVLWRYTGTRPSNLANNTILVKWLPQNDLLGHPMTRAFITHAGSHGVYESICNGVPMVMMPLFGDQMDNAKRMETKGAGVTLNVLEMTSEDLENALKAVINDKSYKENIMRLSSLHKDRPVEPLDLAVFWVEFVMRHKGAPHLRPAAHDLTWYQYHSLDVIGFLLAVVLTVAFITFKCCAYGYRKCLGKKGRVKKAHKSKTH
Assay: UGT inhibition in suspension human hepatocytes
Type: cell-based
Conditions: read-out: Ki,u HHEPs; UGT1A9, Propofol 10 μM, unbound
recordedMetric: pKi
In textbook form, pKi equals minus log to base ten of the concentration in mol/L.

[in] Input Nn1nnc2ccccc21 [ABT, Aminobenzotriazole] , output reported pKi.
[out] 2.34

---

Biological target: SULT2A1 (Homo sapiens, UniProt Q06520)
Sequence (Q06520 whole entry): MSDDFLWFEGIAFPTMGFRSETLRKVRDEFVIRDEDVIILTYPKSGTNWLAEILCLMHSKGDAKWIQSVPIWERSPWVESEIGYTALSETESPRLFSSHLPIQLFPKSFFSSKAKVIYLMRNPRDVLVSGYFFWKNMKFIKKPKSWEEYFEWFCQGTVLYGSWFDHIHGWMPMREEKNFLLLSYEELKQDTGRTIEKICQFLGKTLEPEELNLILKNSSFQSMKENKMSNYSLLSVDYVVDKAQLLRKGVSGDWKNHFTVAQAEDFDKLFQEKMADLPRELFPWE
Experiment: ARV-471 inhibition of recombinant SULT2A1
Assay type: biochemical
Conditions: rSULT2A1 IC50 (DHEAS formation)
recordedMetric: IC50

[in] Using the record for O=C1CC[C@H](N2Cc3cc(N4CCN(CC5CCN(c6ccc([C@@H]7c8ccc(O)cc8CC[C@@H]7c7ccccc7)cc6)CC5)CC4)ccc3C2=O)C(=O)N1 [ARV-471] , state its measured IC50.
[out] > 35 µM

---

Biological target: UniProt P35503
Sequence (P35503 29-534): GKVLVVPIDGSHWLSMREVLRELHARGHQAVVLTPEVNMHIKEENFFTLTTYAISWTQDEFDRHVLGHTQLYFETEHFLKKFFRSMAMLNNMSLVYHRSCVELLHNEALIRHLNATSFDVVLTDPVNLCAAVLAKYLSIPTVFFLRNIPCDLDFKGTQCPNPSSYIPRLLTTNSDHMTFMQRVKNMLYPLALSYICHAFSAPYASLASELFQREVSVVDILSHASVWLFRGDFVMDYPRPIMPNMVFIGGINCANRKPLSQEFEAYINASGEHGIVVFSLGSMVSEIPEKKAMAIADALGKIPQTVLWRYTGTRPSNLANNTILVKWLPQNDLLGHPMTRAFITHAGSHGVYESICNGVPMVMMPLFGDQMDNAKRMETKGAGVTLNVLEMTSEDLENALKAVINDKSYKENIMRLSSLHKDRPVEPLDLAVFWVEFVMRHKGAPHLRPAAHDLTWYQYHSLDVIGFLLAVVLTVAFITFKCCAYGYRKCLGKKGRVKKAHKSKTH
Test: UGT inhibition in suspension human hepatocytes
Format: cell-based
Settings: read-out: Ki,u HHEPs; UGT1A3, CDCA 2 μM, unbound
recordedMetric: pKi
Scale for pKi: -log10 of concentration given in mol/L; no unit attached.

[in] Please give the documented pKi of Nn1nnc2ccccc21 [ABT, Aminobenzotriazole]
[out] 2.22

---

Biological target: UGT1A4 (Homo sapiens)
Sequence (P22310 29-534): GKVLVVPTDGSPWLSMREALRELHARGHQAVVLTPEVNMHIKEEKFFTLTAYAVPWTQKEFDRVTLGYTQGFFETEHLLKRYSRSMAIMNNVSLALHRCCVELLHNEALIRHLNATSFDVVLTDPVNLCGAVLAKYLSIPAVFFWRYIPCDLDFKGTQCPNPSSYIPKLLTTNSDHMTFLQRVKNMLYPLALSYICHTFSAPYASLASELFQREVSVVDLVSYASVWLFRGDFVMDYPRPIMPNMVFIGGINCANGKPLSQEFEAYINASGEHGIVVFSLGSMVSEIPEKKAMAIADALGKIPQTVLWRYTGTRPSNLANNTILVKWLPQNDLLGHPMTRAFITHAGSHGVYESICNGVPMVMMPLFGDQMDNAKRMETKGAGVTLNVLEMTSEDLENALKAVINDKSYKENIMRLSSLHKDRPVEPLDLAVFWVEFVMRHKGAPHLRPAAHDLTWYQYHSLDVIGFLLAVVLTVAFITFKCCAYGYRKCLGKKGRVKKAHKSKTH
Assay: UGT inhibition in suspension human hepatocytes
Format: cell-based
Conditions: read-out: Ki,u HHEPs; UGT1A4, TFP 1 μM, unbound
recordedMetric: Ki (µM)
Only the number, expressed in µM, is required.

[in] Name the recorded Ki of the item "Nn1nnc2ccccc21" in your answer.
[out] 2520
